Test system: human maximum recommended daily dose, FDA database
EXPERIMENT_NOTES: DSSTox (FDAMDD) FDA Maximum (Recommended) Daily Dose Database
RUN_PARAMETERS: TherapeuticCategory: CNS stimulant; hits give low values
ASSAY_METRIC: maximum recommended daily dose (mmol/kg-bw/day)

COC(=O)C(c1ccccc1)C1CCCCN1 (centres undefined)    0.00429
Cn1c(=O)c2c(ncn2C)n(C)c1=O    0.0515
OC(c1ccccc1)(c1ccccc1)C1CCCCN1 (centres undefined)    0.000374
NC1=NC(=O)C(c2ccccc2)O1 (centres undefined)    0.0107

====

Tested on: human maximum recommended daily dose, FDA database
EXPERIMENT_NOTES: DSSTox (FDAMDD) FDA Maximum (Recommended) Daily Dose Database
RUN_PARAMETERS: TherapeuticCategory: antibacterial; antiamebic; hits give low values
ASSAY_METRIC: maximum recommended daily dose (mmol/kg-bw/day)

CN(C)[C@@H]1C(=O)C(C(N)=O)=C(O)[C@@]2(O)C(=O)C3=C(O)c4c(O)ccc(Cl)c4[C@@](C)(O)[C@H]3C[C@@H]12    0.0695
NC[C@@H]1O[C@H](O[C@H]2[C@@H](O)[C@H](O[C@@H]3[C@@H](O)[C@H](N)C[C@H](N)[C@H]3O[C@H]3O[C@H](CO)[C@@H](O)[C@H](O)[C@H]3N)O[C@@H]2CO)[C@H](N)[C@@H](O)[C@@H]1O    0.0569
